molecular target: Peptidyl-glycine alpha-amidating monooxygenase (Homo sapiens, UniProt P19021); experiment: Competitive binding affinity to PAM extracted from human PC3 cells using (R)-Tyr-(S)-ValGly as substrate after 2 hrs by HPLC analysis; parameters: species or system PC-3
Sequence (P19021 whole entry): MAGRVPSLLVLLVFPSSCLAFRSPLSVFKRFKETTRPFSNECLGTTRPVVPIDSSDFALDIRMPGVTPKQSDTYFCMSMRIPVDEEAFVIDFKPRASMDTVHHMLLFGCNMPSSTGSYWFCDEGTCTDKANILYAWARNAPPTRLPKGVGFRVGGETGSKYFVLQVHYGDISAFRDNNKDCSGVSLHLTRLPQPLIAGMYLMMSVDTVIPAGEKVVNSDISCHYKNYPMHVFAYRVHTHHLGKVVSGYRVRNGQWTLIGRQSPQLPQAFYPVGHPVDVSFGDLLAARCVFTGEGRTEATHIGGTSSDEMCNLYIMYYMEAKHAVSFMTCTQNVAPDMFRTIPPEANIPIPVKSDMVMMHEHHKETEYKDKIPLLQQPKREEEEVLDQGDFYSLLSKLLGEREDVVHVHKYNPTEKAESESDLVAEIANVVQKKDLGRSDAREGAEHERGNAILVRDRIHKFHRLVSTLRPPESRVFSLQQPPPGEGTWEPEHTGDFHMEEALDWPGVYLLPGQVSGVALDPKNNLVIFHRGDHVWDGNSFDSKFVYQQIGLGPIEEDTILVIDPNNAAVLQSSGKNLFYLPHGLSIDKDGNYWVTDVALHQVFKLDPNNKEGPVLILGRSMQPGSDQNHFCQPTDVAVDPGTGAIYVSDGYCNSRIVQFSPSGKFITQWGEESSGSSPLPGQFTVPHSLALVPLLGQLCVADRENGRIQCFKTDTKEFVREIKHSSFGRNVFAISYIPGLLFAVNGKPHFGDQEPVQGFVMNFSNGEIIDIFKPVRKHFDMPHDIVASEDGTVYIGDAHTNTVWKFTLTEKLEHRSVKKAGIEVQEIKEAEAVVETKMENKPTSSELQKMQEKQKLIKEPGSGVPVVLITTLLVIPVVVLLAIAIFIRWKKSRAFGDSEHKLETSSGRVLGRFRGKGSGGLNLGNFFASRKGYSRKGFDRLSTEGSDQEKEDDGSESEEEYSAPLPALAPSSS
property label: IC50 (nM)
Answer in nM, number only, no unit symbol.

Hey, Peptidyl-glycine alpha-amidating monooxygenase (Homo sapiens, UniProt P19021) data for CCCCCCCCCC(=O)OCC(=O)O : IC50 came out at 120

###

target: Peptidyl-glycine alpha-amidating monooxygenase (Homo sapiens, UniProt P19021); assay: Competitive binding affinity to PAM extracted from human DMS53 cells using (R)-Tyr-(S)-ValGly as substrate after 2 hrs by HPLC analysis; set-up: species or system DMS-53
property label: pIC50
pIC50 field: float, defined as -log10 of concentration (mol/L).

compound	study system	pIC50
CCCCCCCCCC(=O)NCC(=O)O	Peptidyl-glycine alpha-amidating monooxygenase (Homo sapiens, UniProt P19021)	4.52

Attention now shifts to the item below.
Recorded result, CCCCCCCCCC(=O)OCC(=O)O , pIC50: 7.40

###

biological target: Peptidyl-glycine alpha-amidating monooxygenase (Homo sapiens, UniProt P19021); assay: Competitive binding affinity to PAM extracted from human H889 cells using (R)-Tyr-(S)-ValGly as substrate after 2 hrs by HPLC analysis
property label: IC50 (nM)
Supply the numeric figure in nM, leaving out any unit text.

compound	property label	obs value
O=C(O)CSC(=O)Cc1ccccc1	IC50	45000
CCCCCCCCCCCC(=O)OCC(=O)O	IC50	60
O=C(O)COC(=O)Cc1ccccc1	IC50	2000
CCCCCCCCCC(=O)OCC(=O)O	IC50	50

Here is another compound to look at.
Recorded IC50 for CC(=O)N[C@@H](Cc1ccccc1)C(=O)SCC(=O)O on Peptidyl-glycine alpha-amidating monooxygenase (Homo sapiens, UniProt P19021) was 45000

###

target: Peptidyl-glycine alpha-amidating monooxygenase (Homo sapiens, UniProt P19021); experiment: Competitive binding affinity to PAM secreted from human SW1783 cells using (R)-Tyr-(S)-ValGly as substrate after 2 hrs by HPLC analysis
property label: IC50 (µM)
Use µM as the unit, but write only the number.

IC50 reading for CCCCCCCCCC(=O)OCC(=O)O : 30
